Tested on: A498
test: NCI tumour cell line growth inhibition, 48 h
The source made the active and inactive calls. Rule as the data show it: active = GI50 up to about 1.1 µM and inactive = higher.
Answer with one of the outcomes given here: Y (active), N (inactive)

CNC(=O)OC(C)CN1c2ccccc2Sc2ccc(Cl)cc21 (centres undefined): N
Nc1ccn([C@@H]2C[C@H](CO)[C@@H](O)[C@H]2O)c(=O)n1: N
CC(=O)O[C@H]1[C@H](OC(C)=O)[C@@H](CN=[N+]=[N-])OCO[C@@H]1CN=[N+]=[N-]: N
COC(=O)CSc1nnc(-c2ccc(O)c([N+](=O)[O-])c2)[nH]1: N
O=C(c1ccccn1)c1nc(-c2ccc(Cl)c(Cl)c2)nc2ccc(Cl)cc12: N

Any idea what this test logged for COC(=O)c1ccccc1C1CN=NC12Cc1ccc(C)c(C)c1C2=O (centres undefined) ?
N

Any idea what this test logged for "COc1ccc(/C(Cl)=C(\CN(C)C)c2ccc(OC)c(OC)c2)cc1OC" ?
N

Any idea what this test logged for C[n+]1c2ccccc2cc2c(CNC(CCCNC(=N)N)C(=O)O)cccc21 (centres undefined) ?
N

Any idea what this test logged for "CC(=O)Nc1nc(NC(C)=O)c2nc(CO)[nH]c2n1" ?
N

Any idea what this test logged for O=C(NCP(=O)(O)O)c1cccnc1 [(NICOTINAMIDOMETHYL)PHOSPHONIC ACID] ?
N

Any idea what this test logged for "Brc1ccc2c(-c3csc(-c4c[nH]c5ccccc45)n3)c[nH]c2c1" ?
N

Any idea what this test logged for COc1ccc([C@H]2c3cc4c(cc3OC(O)(CO)[C@H]2C(=O)O)OCO4)c(OC)c1.COc1ccc([C@H]2c3cc4c(cc3OC3(O)COC(=O)[C@@H]23)OCO4)c(OC)c1 (some centres undefined) ?
N

Any idea what this test logged for O=S(=O)(C1=CC(S(=O)(=O)c2ccccc2)CN(Cc2ccccc2)C1c1cccc2ccccc12)c1ccccc1 (centres undefined) ?
N

Any idea what this test logged for "O=C1[C@@H]2C(c3ccccc3F)=NO[C@@H]2C(=O)N1c1ccc(Cc2ccc(N3C(=O)[C@H]4C(c5ccccc5F)=NO[C@H]4C3=O)cc2)cc1" ?
N

Any idea what this test logged for "CCOC(=O)Cc1cnc(NC(NC(=O)CC)(C(F)(F)F)C(F)(F)F)s1" ?
N

Any idea what this test logged for "CC[C@]12C=CCN3CC[C@@]4(c5cc(Br)c(OC)cc5N(C)[C@H]4[C@@](O)(C(=O)NN)[C@@H]1O)[C@@H]32" ?
N

Any idea what this test logged for CCOC(=O)[C@H]1O[C@@H]1C(=O)NC(CC(C)C)C(=O)NCCC(C)C (some centres undefined) ?
N

Any idea what this test logged for Cc1ccc(/N=N/c2c(C)c(C#N)c(=S)n(C3OC(CO)C(O)C(O)C3O)c2-c2ccccc2)cc1 (centres undefined) ?
Y

Any idea what this test logged for "O=C(O)c1cc(=O)c2c(OCC(O)COc3cccc4oc(C(=O)O)cc(=O)c34)cccc2o1" ?
N

====

Test system: M14
test: NCI tumour cell line growth inhibition, 48 h
The source made the active and inactive calls. Cut-off read from the data, not from the text of the source: active = GI50 up to about 1.1 µM and inactive = higher.
Reported GI50 values follow for various molecules

Recorded GI50 for CCOC(=O)C(O)(NC(=O)c1ccccc1F)C(F)(F)F (stereo not given) , please?
> 100 µM (inactive)

Recorded GI50 for COC(=O)C(C)NP(=O)(N1CC1)N1CC1 (stereo not given) , please?
83 µM (inactive)

Recorded GI50 for "O=C(c1ccccn1)c1nc(-c2ccc(Cl)c(Cl)c2)nc2ccc(Cl)cc12" , please?
> 100 µM (inactive)

Recorded GI50 for "C[C@]12O[C@@]3(C)O[C@@]3(C)[C@]3(C)O[C@]3(C)[C@@]1(C)O2" , please?
> 100 µM (inactive)

Recorded GI50 for Cc1ccc(/N=N/c2c(C)c(C#N)c(=S)n(C3OC(CO)C(O)C(O)C3O)c2-c2ccccc2)cc1 (stereo not given) , please?
14.6 µM (inactive)
